B1: HDV Ribozyme (parent)
chain: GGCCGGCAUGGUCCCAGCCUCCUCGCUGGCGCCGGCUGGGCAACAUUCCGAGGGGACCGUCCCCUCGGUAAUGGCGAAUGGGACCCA

Variants of: B1
PROTOCOL_SUMMARY: self-cleavage, relative activity (ratio to wild type); higher = more cleavage; co-transcriptional
Label y for high-side self-cleavage (at or above 0.1) and n for low-side self-cleavage (below it).

G25U G82A
n
G1C A43C
y
G59A C66G
y
U9A G38C
y
C4A U12A
n

Q) Could you verify whether the entry G1C C86G shows self-cleavage of no less than 0.1?
A) y

Q) Could you verify whether the entry C14U C49A shows self-cleavage of no less than 0.1?
A) y

Q) Could you verify whether the entry C26A C49A shows self-cleavage of no less than 0.1?
A) y

Q) Could you verify whether the entry G2A A77G shows self-cleavage of no less than 0.1?
A) y

Q) Could you verify whether the entry G5C C75U shows self-cleavage of no less than 0.1?
A) n
